The reported measurements were obtained from the SangsterLogP compilation.

Known logP of a selection of molecules
The answer should be a number; do not append a unit.

* CC(=O)c1ccccc1N | 1.25

Now take the following molecule into account.
logP for `COc1ccc(N)cc1` is 0.98

* * *

# Assay Remarks: method code SF-GLC, from DOI: 10.1016/0166-445x(88)90052-5
A collection of compounds and their measured logP

Some compounds with known logP results, for comparison:
- BrCC1CO1 (stereo not drawn): 0.85
- OCC1CO1 (stereo not drawn): -0.95

Next, consider the following compound.
Form field logP, entry ClCC1CO1 (stereo not drawn) : 0.45

* * *

# Assay Remarks: method code SF-HPLC, from DOI: 10.1021/jm00056a006, PMID: 8474102
# Experimental Context: pH 7.4
Measured Metric: logD
Please reply with the value in numeric form only.

- CC(C)CC(O)C(O)C(CC1CCCCC1)NC(=O)C(Cc1cscn1)NC(=O)C(Cc1ccccc1)CS(=O)(=O)C1CCN(C)C1 (configuration not stated): 3.61

Kindly review the next molecule as well.
Given item CC(C)CC(O)C(O)C(CC1CCCCC1)NC(=O)C(Cc1nccs1)NC(=O)C(Cc1ccccc1)CS(=O)(=O)C1CN(C)C1 (configuration not stated) , the value recorded as its logD is 3.89

* * *

# Assay Remarks: method code SF-AS, from DOI: 10.1002/chin.199416148, PMID: 8117185
Measured Metric: logP
Give a plain numeric answer without units written out.

* O=C(CCN1CCCCC1)CN1C(=O)CC(c2ccc(Cl)cc2)C1=O (stereo not given) | 2.23
* CC(C(=O)CCN1CCCCC1)N1C(=O)C2CC=CCC2C1=O (stereo not given) | 1.55
* O=C(CCN1CCCCC1)CN1C(=O)C2CC=CCC2C1=O (stereo not given) | 1.44

response.value for CC(C(=O)CCN(C)C)N1C(=O)C2CC=CCC2C1=O (stereo not given) (field: logP) = 0.77

logP measured on `O=C(CCN1CCCCC1)CN1C(=O)c2ccccc2C1=O` = 0.86

* * *

# Assay Remarks: method code SF-RC, from DOI: 10.1021/es60170a013
Measured Metric: logP
Respond using a number only.

• ClC(Cl)Cl = 1.9
• ClC(Cl)C(Cl)Cl = 2.39

The reported value for `Oc1ccc(Cl)c(O)c1` in terms of logP is 1.8

* * *

# Assay Remarks: method code SF-CR+AS, from Korenman, I. (1982). The influence of substituents on the partition of phenols between water and organic solvents. Russ. J. Phys. Chem., 56(3)458-460.
Measured Metric: logP
# print the numeric value only

Query `Nc1cc([N+](=O)[O-])cc(Cl)c1O` yields logP of 1.53

* * *

# Assay Remarks: method code SF-RC, from DOI: 10.1016/j.nucmedbio.2014.03.023, PMID: 24768149
# Experimental Context: pH 7.4
Measured Metric: logD
I only need the number, thanks.

response.value for FCCOC1CCC=CCCC1 (stereo unspecified) (field: logD) = 1.68

* * *

Overview of reported logP across a group of compounds:
API doc: respond with a numeric literal and nothing else, no unit.

- Cc1ccc(Cl)cc1Cl: 4.09
- Oc1cc(Cl)c(Cl)c(Cl)c1O: 3.56

Now look at this entry.
For record `Oc1c(O)c(Cl)c(Cl)c(Cl)c1Cl` the listed logP is 4.12
